# Read-out: E-selectin (Homo sapiens) (UniProt P16581)
# Sequence (P16581 whole entry, looked up): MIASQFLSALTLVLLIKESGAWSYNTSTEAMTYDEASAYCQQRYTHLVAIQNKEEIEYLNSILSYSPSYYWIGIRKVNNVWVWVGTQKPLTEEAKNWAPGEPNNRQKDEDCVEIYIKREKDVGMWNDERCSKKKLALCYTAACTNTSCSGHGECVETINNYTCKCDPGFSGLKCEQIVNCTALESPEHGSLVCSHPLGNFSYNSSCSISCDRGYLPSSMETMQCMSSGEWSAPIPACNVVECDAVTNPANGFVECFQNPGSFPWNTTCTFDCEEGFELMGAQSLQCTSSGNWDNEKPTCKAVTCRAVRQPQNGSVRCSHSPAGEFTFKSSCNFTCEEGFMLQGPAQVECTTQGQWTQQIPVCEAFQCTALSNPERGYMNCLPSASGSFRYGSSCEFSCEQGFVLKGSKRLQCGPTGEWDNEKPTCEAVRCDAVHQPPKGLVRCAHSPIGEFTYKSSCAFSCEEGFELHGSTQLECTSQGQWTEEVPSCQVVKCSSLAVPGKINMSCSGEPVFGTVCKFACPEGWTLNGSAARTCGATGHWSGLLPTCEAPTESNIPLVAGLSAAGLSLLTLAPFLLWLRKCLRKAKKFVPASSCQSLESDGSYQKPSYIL
# test.details: BSK_LPS_Eselectin: BioMAP Diversity Plus: LPS Assay for Eselectin Biomarker Activity (AID 2283077)
# measurement.parameters: primary human HUVEC with PBMC; actives raise or lower the signal
Active and inactive are the calls of the source. Rule for the calls: active = hit-call score of the fitted dose curve at least 0.9, where 1 is the maximum; inactive = score below 0.9.
Outcome codes: yes = active, no = inactive

{"columns": ["molecule", "qualitative.label"],
 "data": [
  ["C#C[C@]1(O)CC[C@H]2[C@@H]3CCc4cc(O)ccc4[C@H]3CC[C@@]21C", "no"],
  ["CCCCOCCOCCO", "no"],
  ["CC(C)(CO)CO", "no"],
  ["CC(C)Cc1ccc(C(C)C(=O)O)cc1 (centres undefined)", "no"],
  ["O=C(c1ccc(OCCN2CCCCC2)cc1)c1c(-c2ccc(O)cc2)sc2cc(O)ccc12", "yes"],
  ["C=C(F)C(=O)OC(C(F)(F)F)C(F)(F)F", "no"],
  ["CC(=O)OCC=C(C)CCC=C(C)CCC=C(C)C", "no"],
  ["CC=CC(=O)C1=C(C)C=CCC1(C)C", "no"],
  ["CC(=O)OC(C)(C)C1CC=C(C)CC1 (centres undefined)", "no"],
  ["C=CC(=O)OCC(CO)(COC(=O)C=C)COC(=O)C=C", "yes"],
  ["CCC(=O)OCC=Cc1ccccc1", "no"],
  ["O=S(=O)(O)C(F)(F)C(F)(F)OC(F)(F)C(F)(F)F", "no"],
  ["CCOC(=O)C=Cc1ccccc1", "no"],
  ["c1ccc(OCCOc2ccccc2)cc1", "no"]
]}

---

# test.details: ACEA_ER_AUC_viability: ACEA Biosciences xCELLigence Real-Time Cell Analysis on Estrogen Receptor Agonism for Viability (AID 2283782);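 note: continuous compound exposure with impedance area under curve over 80 h; hit means loss of impedance signal meaning reduced cell growth or viability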
Records with an inconclusive call do not appear. Activity calls are given as the source filed them. The calls were made as follows: active = hit-call score of the fitted dose curve at least 0.9, where 1 is the maximum; inconclusive = response in the unintended direction; inactive = score below 0.9.
Outcome codes: 1 = active, -1 = inactive

{"columns": ["molecule", "qualitative.label"],
 "data": [
  ["Cc1cc(O)c(C)c(C)c1O", 1],
  ["CC(=O)C1=C(C)[C@@H]2C[C@@]3(C1)[C@H](C)CC[C@H]3C2(C)C", 1],
  ["CCCCCCCCCC(=O)OCC", -1],
  ["CC(=O)C1C(=O)C=C(C)OC1=O (configuration not stated)", -1],
  ["CCCCCCCCOC(C)=O", -1],
  ["O=C(O)c1ccco1", 1],
  ["CC(=O)CCC(=O)O", -1],
  ["CCCCCCCCCCCCCCCCCC(=O)OCCCCCCCCCCCCCC(C)C", 1],
  ["CN(C)c1ccc(C=O)cc1", -1],
  ["CCOC(=O)CC(C)C", -1],
  ["CCCCCCCCCCO[C@@H]1O[C@H](CO)[C@@H](O)[C@H](O)[C@H]1O", 1],
  ["C=CCOCC(O)CO (configuration not stated)", -1],
  ["CC/C=C\\CCCCCCCCCCOC(C)=O", -1],
  ["CCCCCCCCSCc1cc(C)c(O)c(CSCCCCCCCC)c1", -1],
  ["CCCCCCCC1CCCC1=O (configuration not stated)", -1],
  ["CC1(C)CC(=O)CC(C)(C)N1", -1],
  ["CC(O)CN (configuration not stated)", -1],
  ["CC1=CC[C@@H](C(C)(C)O)CC1", -1],
  ["CN(C)CCC=C1c2ccccc2CCc2ccccc21", 1],
  ["CC(=O)OC/C=C(C)/C=C/C=C(C)/C=C/C1=C(C)CCCC1(C)C", 1],
  ["O=S(=O)(O)CCCN1CCOCC1", 1],
  ["CC/C=C\\CCOC(C)OCC (configuration not stated)", -1],
  ["CCc1cccc(O)c1", -1],
  ["O=C(O)CS", -1],
  ["O=S1(=O)CC=CC1", -1],
  ["CC(C)N1C(=O)c2ccccc2C1=O", -1],
  ["CC(CCO)CC(C)(C)C (configuration not stated)", -1],
  ["N=C1N=C(N)c2ccccc21", 1],
  ["O=C(O)c1ccc(C(=O)O)c(C(=O)O)c1", -1],
  ["CCOC(=O)CCCCCCCCC(=O)OCC", -1],
  ["NC(=O)c1cnccn1", -1],
  ["CCCCCCOC(C)=O", 1]
]}

---

# test.details: ATG_Ets_CIS: Attagene CIS-FACTORIAL HepG2 Assay for human Erythroblast Transformation Specific (ETS) (AID 2282941)
# measurement.parameters: HepG2 ETS cis-reporter transcription, actives raise or lower the signal
Calls of active or inactive are those of the source. How the source made its calls: active means hit-call score of the fitted dose curve at least 0.9, where 1 is the maximum; inactive means score below 0.9.

{"columns": ["molecule", "outcome"],
 "data": [
  ["O=c1cc[nH]cc1", "inactive"],
  ["C1CCCNCC1", "inactive"],
  ["CC(C)C(=O)c1ccccc1", "inactive"],
  ["CC/C=C\\CCCCO", "inactive"],
  ["CC1(C)CC(N)CC(C)(CN)C1 (centres undefined)", "inactive"],
  ["CC(=O)c1ccc(C)cc1", "inactive"],
  ["CC(=O)CC(=O)N(C)C", "inactive"],
  ["CCCO[Si](OCCC)(OCCC)OCCC", "inactive"],
  ["CCC(=O)OC(C)(C)C1CC=C(C)CC1 (centres undefined)", "inactive"]
]}

---

# test.details: ACEA_AR_agonist_AUC_viability: ACEA Biosciences xCELLigence Real-Time Cell Analysis on Androgen Receptor Agonism for Viability (AID 2283775)
Records with an inconclusive call do not appear. The source made the active and inactive calls. How the source made its calls: active means hit-call score of the fitted dose curve at least 0.9, where 1 is the maximum; inconclusive means response in the unintended direction; inactive means score below 0.9.
Outcome codes: active, inactive

{"columns": ["molecule", "qualitative.label"],
 "data": [
  ["c1coc(CNc2ncnc3nc[nH]c23)c1", "inactive"],
  ["FC(F)(F)c1ccc(Cl)c(Cl)c1", "inactive"],
  ["CCOCC(C)O (stereo not drawn)", "inactive"],
  ["CCc1cccc(O)c1", "inactive"],
  ["O=C(O)c1ccccc1O", "inactive"],
  ["CCCCOCCOCCOCCO", "inactive"],
  ["CC(C)(C)C1CCC(O)CC1 (stereo not drawn)", "inactive"],
  ["CCCCCCCCOC(=O)c1ccc(O)cc1", "inactive"],
  ["CCCc1ccc(O)cc1", "inactive"],
  ["O=C(c1ccc(OCCN2CCCCC2)cc1)c1c(-c2ccc(O)cc2)sc2cc(O)ccc12", "active"],
  ["CCCCN(CCCC)CCCCCCN(CCCC)CCCC", "inactive"],
  ["O=C(O)C1=NN(c2ccc(S(=O)(=O)O)cc2)C(=O)C1", "active"],
  ["CCCCCCCCCCO[C@@H]1O[C@H](CO)[C@@H](O)[C@H](O)[C@H]1O", "inactive"],
  ["NC(=O)c1cccnc1", "inactive"],
  ["CC(=O)Oc1c(C)c(C)c2c(c1C)CC[C@@](C)(CCC[C@H](C)CCC[C@H](C)CCCC(C)C)O2", "inactive"],
  ["C#C[C@]1(O)CC[C@H]2[C@@H]3CCc4cc(O)ccc4[C@H]3CC[C@@]21C", "inactive"],
  ["CC12CCC(C1)C(C)(C)C2O (stereo not drawn)", "inactive"],
  ["CC/C(=C(\\c1ccccc1)c1ccc(OCCN(C)C)cc1)c1ccccc1", "active"]
]}

---

# Read-out: X-box binding protein 1 (XBP1), XBP1 (gene 7494)
# test.details: LTEA_HepaRG_XBP1: Life Technologies and Expression Analysis (LTEA) Assay for X-box binding protein 1 (XBP1) using HepaRG (AID 2283540)
# measurement.parameters: mRNA level, 48 h; actives raise or lower the signal
The source made the active and inactive calls. How the source made its calls: active means hit-call score of the fitted dose curve at least 0.9, where 1 is the maximum; inactive means score below 0.9.
readout.kind: AC50

{"columns": ["compound.smiles", "readout.kind", "result"],
 "data": [
  ["C=C(C)C(N)=O", "AC50", "inactive"],
  ["O=C(c1ccc(OCCN2CCCCC2)cc1)c1c(-c2ccc(O)cc2)sc2cc(O)ccc12", "AC50", "50 µM (active)"],
  ["C#C[C@]1(O)CC[C@H]2[C@@H]3CCc4cc(O)ccc4[C@H]3CC[C@@]21C", "AC50", "inactive"],
  ["C[C@]12CC[C@@H]3c4ccc(O)cc4CC[C@H]3[C@@H]1CC[C@@H]2O", "AC50", "inactive"]
]}

---

# Read-out: Interleukin-1 alpha (IL1a), IL1A (gene 3552)
# test.details: BSK_BE3C_IL1a: BioMAP Diversity Plus: BE3C Assay for Interleukin-1 alpha (IL1a) Biomarker Activity (AID 2283016)
# measurement.parameters: primary human bronchial epithelial cells; actives raise or lower the signal
The source made the active and inactive calls. The calls were made as follows: active = hit-call score of the fitted dose curve at least 0.9, where 1 is the maximum; inactive = score below 0.9.
Outcome codes: 1 (yes) for active, 0 (no) for inactive

{"columns": ["compound", "qualitative.label"],
 "data": [
  ["OCC(F)(OC(F)(F)C(F)(OC(F)(F)C(F)(F)C(F)(F)F)C(F)(F)F)C(F)(F)F (stereo not drawn)", "0 (no)"],
  ["CC(C)(CO)CO", "0 (no)"],
  ["Nc1ccc(N)c([N+](=O)[O-])c1", "0 (no)"],
  ["CCOC(=O)CCCCCCCCC(=O)OCC", "0 (no)"],
  ["O=C1OC2(c3ccc(O)cc3Oc3cc(O)ccc32)c2ccccc21", "0 (no)"],
  ["C=CC(=O)OCC(CO)(COC(=O)C=C)COC(=O)C=C", "1 (yes)"],
  ["CCCCOCCOCCO", "0 (no)"],
  ["c1ccc(Sc2ccccc2)cc1", "1 (yes)"]
]}
